The reported measurements were obtained from patent US20160200831A1.

# TESTED ON: glycosylated human PAI-1 (active form) (human, UniProt P05121 24-402, glycosylated)
# Sequence (P05121 24-402 limits assumed): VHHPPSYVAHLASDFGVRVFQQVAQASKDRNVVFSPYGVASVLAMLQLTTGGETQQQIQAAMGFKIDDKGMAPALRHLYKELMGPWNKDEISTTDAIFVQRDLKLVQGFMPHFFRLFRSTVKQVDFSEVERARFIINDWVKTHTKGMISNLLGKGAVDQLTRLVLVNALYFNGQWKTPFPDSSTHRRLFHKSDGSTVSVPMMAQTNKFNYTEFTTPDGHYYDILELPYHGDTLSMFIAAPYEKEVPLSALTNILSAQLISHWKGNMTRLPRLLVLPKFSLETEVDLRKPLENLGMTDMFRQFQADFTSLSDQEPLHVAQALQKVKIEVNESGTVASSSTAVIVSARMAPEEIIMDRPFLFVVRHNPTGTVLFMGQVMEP
# TEST SUMMARY: cell-based or functional assay
ENDPOINT NAME: plasmin generation, hepatic stellate cells, IC50abs (nM)
Numbers only here, please. The scale is nM.

Query: Give the measured plasmin generation, hepatic stellate cells, IC50abs for E16 (antibody, mouse IgG1, V domains shown, mouse IgG1; also called mE16; E16 (IgG1)) VH: EVKLVESGGGLVKPGGSLKLSCAASGFTFSNYGMSWVRQTPEKGLGWVASLRTGGNTYYSDSVKGRFTISRDNDRNILYLQMSSLTSEDTAVYYCARGLRHWGYFDVWGAGTTVTVSS VL: DIVMTQSHKFMSTSVGDRVNITCKASQDVSTAVGWYQQEPGQSPKLLIYSASNRHTGVPDRFTGSGSGTDFTFTISSVQAEDLAVYYCQQHYSSPWTFGGGTKLEIK
Response: 4.74
